Assay Explanation: collision cross section of unmodified peptide (TIMS, N2, iRT-aligned); higher = larger / more extended gas-phase ion
Reported Conditions: charge state: 2
Measured collision cross section, listed per entry.
Your answer is read as Å², so omit the unit and give the number.

Worked cases, answers included:
>  <Primary Sequence>
KVQFAPEK

>  <Readout Value>
329.36

$$$$
>  <Primary Sequence>
VETTVTSLKTK

>  <Readout Value>
379.41

$$$$
>  <Primary Sequence>
APIISGVTK

>  <Readout Value>
322.45

$$$$
>  <Primary Sequence>
GGSGGRGVSVSSAR

>  <Readout Value>
376.75

$$$$
>  <Primary Sequence>
AVPSSPAGSAARGR

>  <Readout Value>
380.85

$$$$
>  <Primary Sequence>
FGRGTGLTQPSQR

>  <Readout Value>
395.55

$$$$
>  <Primary Sequence>
PGTPAGYGRGR

>  <Readout Value>
352.56

$$$$
>  <Primary Sequence>
YGRGQLNYPLPDFSK

>  <Readout Value>
433.52

$$$$
>  <Primary Sequence>
SFSASGAQIVSR

>  <Readout Value>
366.99

$$$$
>  <Primary Sequence>
RGATPPAPPR

>  <Readout Value>
338.24

$$$$

Data point: "GDAGEPGRPGSPGK" ; collision cross section = 357.76

Reported collision cross section for "LDYSDFQIVK" was 368.99

"GEQGEPGAPGIRTGIQGLK" yielded collision cross section of 452.7

Record "FSAYIKNSNPALNDNLEK" . Reported collision cross section: 493.15

Given item "SQAGASELGPFSDPR" , the value recorded as its collision cross section is 396.36

Looking up "VTPHPSPRGSPLPTPK" , I see its collision cross section listed as 427.24

Query "LAEEENKAK" yields collision cross section of 348.48

Recorded result, "DDSFLGKLGGTLAR" , collision cross section: 410.69

The measured collision cross section associated with "YTAILNQIPSHSSSIR" reads 475.98

Sample "IPQEKCILQTDVK" ; collision cross section observed: 428.77

Field collision cross section (entry "ASCLYGQLPK" ) reads 363.85
